target: UniProt:P10827; test: Agonist activity at TRalpha (unknown origin) expressed in human HuH7 cells after 24 hrs by Gal4 CTF cell-based assay
Assay readout: pEC50
Please note pEC50 is a logarithmic value: minus log10 of concentration in mol/L. Answer with that number alone.

Query string: // output pEC50; input Cc1cn(Cc2ccc(O)c(Cc3ccccc3)c2)c2ccc(OCC(=O)O)cc12 ; system UniProt:P10827
Result string: 5.61

* * *

molecular target: Thyroid hormone receptor alpha (Homo sapiens, UniProt P10827); assay: Displacement of [125I]-L-3,5,3'-triiodothyronine from human TRalpha expressed in human Hela cell lysate measured after overnight incubation by competition binding assays
Sequence (P10827 whole entry): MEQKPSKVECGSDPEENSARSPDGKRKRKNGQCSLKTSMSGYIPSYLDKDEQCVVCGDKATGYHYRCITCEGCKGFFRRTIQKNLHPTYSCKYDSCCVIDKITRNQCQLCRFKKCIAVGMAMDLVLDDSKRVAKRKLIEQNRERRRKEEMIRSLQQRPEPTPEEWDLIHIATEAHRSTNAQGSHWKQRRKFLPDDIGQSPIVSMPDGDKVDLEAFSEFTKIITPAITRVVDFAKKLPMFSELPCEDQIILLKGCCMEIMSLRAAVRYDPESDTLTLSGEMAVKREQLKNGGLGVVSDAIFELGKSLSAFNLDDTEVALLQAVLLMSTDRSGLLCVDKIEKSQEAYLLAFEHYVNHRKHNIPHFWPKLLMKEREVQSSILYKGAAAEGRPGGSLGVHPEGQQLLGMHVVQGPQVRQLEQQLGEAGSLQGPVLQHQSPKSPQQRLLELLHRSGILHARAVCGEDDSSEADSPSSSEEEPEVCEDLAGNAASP
pKi: −log10 of the molar value.
Decision: pKi compared against 9; not below it gives 1.0, below it gives 0.0.

molecular_string=CC(C)c1cc(Cn2ccc3cc(OCC(=O)O)cc(Cl)c32)ccc1O category_label=1.0
molecular_string=Cc1cn(Cc2ccc(O)c(C3CCCC3)c2)c2ccc(OCC(=O)O)cc12 category_label=0.0
molecular_string=Cc1cn(Cc2ccc(O)c(CC3CCCCC3)c2)c2ccc(OCC(=O)O)cc12 category_label=0.0
molecular_string=Cc1cc2cc(OCC(=O)O)cc(Cl)c2n1Cc1ccc(O)c(C(C)C)c1 category_label=1.0
molecular_string=Cc1cn(Cc2ccc(O)c(C3CCCCC3)c2)c2ccc(OCC(=O)O)cc12 category_label=0.0
molecular_string=Cc1cn(Cc2ccc(O)c(Cc3ccccc3)c2)c2ccc(OCC(=O)O)cc12 category_label=0.0
molecular_string=Cc1cn(Cc2ccc(O)c(C(C)C)c2)c2ccc(OCC(=O)O)cc12 category_label=0.0
molecular_string=Cc1cn(Cc2ccc(O)c(C(C)C)c2)c2c(Cl)cc(OCC(=O)O)cc12 category_label=1.0

Query string: Does Cc1cn(Cc2ccc(O)c(-c3ccccc3)c2)c2ccc(OCC(=O)O)cc12 have a reported pKi of at least 9?
Result string: 0.0

Query string: Does Cc1cn(Cc2ccc(O)c(C(C)(C)C)c2)c2ccc(OCC(=O)O)cc12 have a reported pKi of at least 9?
Result string: 0.0

Query string: Does CC(C)c1cc(Cn2ccc3cc(OCC(=O)O)ccc32)ccc1O have a reported pKi of at least 9?
Result string: 0.0

Query string: Does Cc1cc2cc(OCC(=O)O)ccc2n1Cc1ccc(O)c(C(C)C)c1 have a reported pKi of at least 9?
Result string: 0.0

Query string: Does Cc1cc(OCC(=O)O)cc2cc(C)n(Cc3ccc(O)c(C(C)C)c3)c12 have a reported pKi of at least 9?
Result string: 0.0

Query string: Does Cc1cn(Cc2ccc(O)c(C(C)C)c2)c2c(C)cc(OCC(=O)O)cc12 have a reported pKi of at least 9?
Result string: 0.0

meta.source: ChEMBL document CHEMBL3396982
